Values from PubChem BioAssay (NCI)

system: NCI-H23 lung; test: NCI tumour cell line growth inhibition, 48 h; in the data active = GI50 below about 0.43 µM; inactive = the rest
Labels: 1 for active, -1 for inactive

[[record]]
compound = "O=C1c2ccccc2-c2c1c1ccccc1c(=O)n2CCCNCCCNCCCn1c2c(c3ccccc3c1=O)C(=O)c1ccccc1-2"
classification = 1

[[record]]
compound = "Nc1c(C(=O)Nc2cccc([N+](=O)[O-])c2)sc2nc3c(cc12)C(O)CCC3 (stereo not given)"
classification = -1

[[record]]
compound = "C[C@H](Nc1ncnc2nc[nH]c12)c1cc2cccc(Cl)c2c(=O)n1-c1ccccc1"
classification = -1

[[record]]
compound = "COC(=O)[C@H](Cc1cn(C)cn1)NC(=O)[C@H](Cc1c[nH]c2ccccc12)NC(=O)Nc1cc(C(F)(F)F)cc(C(F)(F)F)c1"
classification = -1

[[record]]
compound = "CC/C=C\\C=C/C(=O)N/C=C/CC1Cc2cccc(O)c2C(=O)O1 (stereo not given)"
classification = -1


====

system: SK-OV-3 ovarian; assay: NCI tumour cell line growth inhibition, 48 h
Recorded TGI by entry
outcome-measure: TGI

[[record]]
compound = "CCCCN1CCN(c2ccc3nc(-c4ccc5nc(-c6ccc(C(F)(F)F)cc6)[nH]c5c4)[nH]c3c2)CC1"
outcome_measure = "TGI"
result = "3.39 µM"

[[record]]
compound = "CSC1CC2C(CC1(C)O)C2(C)C (stereo not given)"
outcome_measure = "TGI"
result = "> 100 µM"

[[record]]
compound = "COP(=O)(O)/C=C/C(NC(=O)C(Cl)(Cl)Cl)c1ccccc1 (stereo not given)"
outcome_measure = "TGI"
result = "> 100 µM"

[[record]]
compound = "N#Cc1nc(-c2cc([N+](=O)[O-])cc([N+](=O)[O-])c2)oc1N"
outcome_measure = "TGI"
result = "> 10 µM"

[[record]]
compound = "COC(=O)c1c(C)cccc1/C=C1/Cc2c(C)cccc2C1=O"
outcome_measure = "TGI"
result = "> 100 µM"


====

tested on: MOLT-4 leukemia; test: NCI tumour cell line growth inhibition, 48 h; in the data active = GI50 below about 0.43 µM; inactive = the rest
Outcomes: 1 (active), -1 (inactive)

[[record]]
compound = "COc1ccc2c(CCCC(c3ccccc3)c3ccccc3)c3[n+](cc2c1OC)CCc1cc2c(cc1-3)OCO2"
assay_target = "MOLT-4 leukemia"
classification = 1

[[record]]
compound = "Nc1ccn(Cc2ccc(C34CC5CC(CC(C5)C3)C4)c(O)c2)c(=O)n1"
assay_target = "MOLT-4 leukemia"
classification = -1

[[record]]
compound = "Nc1cc2cccc[n+]2c2cc(Cl)ccc12"
assay_target = "MOLT-4 leukemia"
classification = -1

[[record]]
compound = "CCN(Cc1ccc(F)c(F)c1)c1ccc(CO)c(Cl)c1"
assay_target = "MOLT-4 leukemia"
classification = -1

[[record]]
compound = "CC1SC(c2c(Cl)cccc2Cl)N(NC(=O)c2[nH]c3ccc(F)cc3c2-c2ccccc2)C1=O (stereo not given)"
assay_target = "MOLT-4 leukemia"
classification = -1


====

# key: entry, value: TGI
test system: HOP-18 NSCLC; test: NCI tumour cell line growth inhibition, 48 h
outcome-measure: TGI

[[record]]
compound = "CN(C)C(CN)CC1=C(CC(CN)N(C)C)CCC1 (configuration not stated)"
outcome_measure = "TGI"
result = "> 100 µM"

[[record]]
compound = "CCOC(=O)C1=C(C(C)=O)CSC(c2ccccc2)=N1"
outcome_measure = "TGI"
result = "> 100 µM"

[[record]]
compound = "CCOC(=O)C1=C(C)N(Cc2ccccc2)C(C)=C(C(=O)OCC)C1c1ccccc1O"
outcome_measure = "TGI"
result = "> 100 µM"

[[record]]
compound = "Cc1ccc(C(=O)O/N=C2/CCC/C2=C\\c2ccccc2)cc1"
outcome_measure = "TGI"
result = "> 100 µM"

[[record]]
compound = "COc1cc(/C=C/C(=O)O)ccc1C(=O)O/C=C/c1ccccc1"
outcome_measure = "TGI"
result = "> 100 µM"

[[record]]
compound = "COc1cc2c(cc1OC)C(N(C)C)C(c1ccccc1)=C2Cl (configuration not stated)"
outcome_measure = "TGI"
result = "> 100 µM"

[[record]]
compound = "C=C1C(O)C2(O)OCC34C(CC5C(C)=CC(=O)C(O)C5(C)C23)OC(=O)C(OC(=O)C/C=C(\\C)CCCCC)C14 (configuration not stated)"
outcome_measure = "TGI"
result = "1.1 µM"

[[record]]
compound = "CCN(CC)CCNc1ccc2nnn3c4ccc(OC)cc4c(=O)c1c23"
outcome_measure = "TGI"
result = "23.2 µM"

[[record]]
compound = "CC1=NOC(=O)/C1=C/c1ccccc1O"
outcome_measure = "TGI"
result = "> 100 µM"

[[record]]
compound = "CNS(=O)(=O)NN(C)S(=O)(=O)c1ccc(F)cc1"
outcome_measure = "TGI"
result = "> 100 µM"

[[record]]
compound = "COc1cc(C2c3cc4c(cc3[C@@H](Nc3ccc(C#N)cc3)C3COC(=O)[C@H]23)OCO4)cc(OC)c1O (some centres not stated)"
outcome_measure = "TGI"
result = "39.3 µM"

[[record]]
compound = "COCCN1C2=CCCCC2=Nc2c1nc(N)[nH]c2=O"
outcome_measure = "TGI"
result = "> 100 µM"

